Molecular target: c-Myc/Max (Homo sapiens) (UniProt P01106+P61244)
Test: Inhibition of dimerization of human MYC bHLH-LZ domain/MAX bHLH-LZ domain expressed in Escherichia coli in presence of Alexa Fluor 594-tagged E-box duplex DNA by fluorescence polarization assay
Activity calls are given as the source filed them. The rule behind the calls is not given here.
measured-attribute: inhibition

Below, 5 compounds whose answers are already recorded.
>>> measured_value("CS(=O)(=O)c1ccc(-c2cc(-c3ccc(C(N)=O)cc3)cc(-c3ccco3)n2)cc1")
"inactive"
>>> measured_value("N#Cc1ccc(-c2cc(-c3ccc(C(N)=O)cc3)cc(-c3ccco3)n2)cc1")
"Active"
>>> measured_value("NC(=O)c1ccc(-c2cc(-c3ccc(S(N)(=O)=O)cc3)nc(-c3ccco3)c2)cc1")
"Active"
>>> measured_value("NC(=O)c1ccc(-c2cc(-c3ccc(C(F)(F)F)cc3)nc(-c3ccco3)c2)cc1")
"Active"
>>> measured_value("NC(=O)c1ccc(-c2cc(-c3ccc([N+](=O)[O-])cc3)nc(-c3ccco3)c2)o1")
"Active"

Supply inhibition value. Item: "NC(=O)c1ccc(-c2cc(-c3ccc([N+](=O)[O-])cc3)nc(-c3cccc(Br)n3)c2)cc1"
inactive

Supply inhibition value. Item: "CN1CCN(c2ccc(-c3cc(-c4ccc(C(N)=O)cc4)cc(-c4ccc([N+](=O)[O-])cc4)n3)cc2)CC1"
inactive

Supply inhibition value. Item: "NC(=O)c1ccc(-c2cc(-c3ccc(Br)cc3)nc(-c3ccc([N+](=O)[O-])cc3)c2)cc1"
inactive

Supply inhibition value. Item: "NC(=O)c1ccc(-c2cc(-c3ccncc3)nc(-c3ccc([N+](=O)[O-])cc3)c2)cc1"
Active

Supply inhibition value. Item: "NC(=O)c1ccc(-c2cc(-c3ccc([N+](=O)[O-])cc3)nc(-c3ccc(Br)cn3)c2)cc1"
inactive

Supply inhibition value. Item: "COC(=O)c1ccc(-c2cc(-c3ccc(C(N)=O)cc3)cc(-c3ccco3)n2)cc1"
inactive

Supply inhibition value. Item: "NC(=O)c1ccc(-c2cc(-c3ccc([N+](=O)[O-])cc3)nc(-c3ccccn3)c2)cc1"
inactive
